Kd values, listed per item
Molecular target: T1, Saccharomyces cerevisiae clathrin heavy chain N-terminal domain (ScChc-NTD, 1-369) (Saccharomyces cerevisiae, UniProt P22137 1-369)
T1 construct: Clathrin heavy chain N-terminal domain, Saccharomyces cerevisiae, residues 1-369; pETM-30 vector with a His-GST tag and a TEV cleavage site; also called WT NTD; source: E. coli BL21 (DE3), purified (Ni-NTA, TEV cleavage, reverse Ni-NTA, SEC)
T1 sequence (looked up): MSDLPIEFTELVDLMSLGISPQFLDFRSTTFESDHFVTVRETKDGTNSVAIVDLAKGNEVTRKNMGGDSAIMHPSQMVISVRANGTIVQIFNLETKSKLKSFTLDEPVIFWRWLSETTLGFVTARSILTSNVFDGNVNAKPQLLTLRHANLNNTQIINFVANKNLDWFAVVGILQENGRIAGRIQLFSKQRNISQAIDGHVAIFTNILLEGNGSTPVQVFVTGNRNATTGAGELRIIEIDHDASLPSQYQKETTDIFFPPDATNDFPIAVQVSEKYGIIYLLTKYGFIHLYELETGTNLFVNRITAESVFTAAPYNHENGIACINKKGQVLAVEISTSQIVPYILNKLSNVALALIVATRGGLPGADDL
Assay: nanoDSF thermal shift; ScChc-NTD 8 µM incubated with eleven peptide concentrations (1:1 dilutions) for 15 min, heated 20-95 °C at 1 °C/min, SEC buffer (50 mM Tris pH 9, 150 mM NaCl, 0.5 mM TCEP); apparent KD from the Tm shift model, one to one binding assumed, global average over all boxes
Conditions: both partners purified

Solved entries (count: 3):
GYTLIDL (also called Ent1 peptide; source: synthetic peptide, bought: NovoProLabs) [Ent1 CBM peptide (GYTLIDL)] | ~138 µM
NPNLIDI (source: synthetic peptide, bought: NovoProLabs) [Yap1802 CBM peptide (NPNLIDI)] | ~311 µM
SQDLLDLF (also called LLDLF peptide; source: synthetic peptide, bought: NovoProLabs) [Apl2.1 CBM peptide (SQDLLDLF)] | ~245 µM

Which measured Kd value corresponds to IPDLIDLDD (also called Ent5.1 LIDL motif; LIDL peptide; source: synthetic peptide, bought: NovoProLabs) [Ent5.1 CBM peptide (IPDLIDLDD)] ?
~34 µM

Which measured Kd value corresponds to NLNLIDM (source: synthetic peptide, bought: NovoProLabs) [Yap1801 CBM peptide (NLNLIDM)] ?
~598 µM

Which measured Kd value corresponds to GVSLIDL (also called Ent2 peptide; source: synthetic peptide, bought: NovoProLabs) [Ent2 CBM peptide (GVSLIDL)] ?
~177 µM
